src = PubChem BioAssay AID504690

- System: glucose-6-phosphate dehydrogenase-6-phosphogluconolactonase (Plasmodium falciparum 3D7)
- ASSAY_NAME: inhibition of malaria parasite G6PD (PfGluPho) – biochemical, fluorescence intensity, uHTS, primary screen (AID 504690);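 note: 0% = DMSO wells with substrate and 100% = DMSO wells lacking glucose-6-phosphate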
- CONDITION_SET: PfGluPho enzyme, NADPH resazurin-diaphorase fluorescence; at 20 µM; stronger effect = higher value
Out of some 350,000 compounds screened, about 2,700 (0.77%) were called active. This is one part of a sample in which actives are shown more often than they occur.
OBSERVATION_TYPE: inhibition (%)

{"COMPOUND": "OCCN1CCN(C(=S)c2ccc(-c3ccccc3)cc2)CC1", "OBSERVATION_TYPE": "inhibition", "U": "%", "MEASURED_RESULT": 66.4}
{"COMPOUND": "Cc1ccc(-n2c(-c3ccc(Cl)cc3)n[nH]c2=S)cc1", "OBSERVATION_TYPE": "inhibition", "U": "%", "MEASURED_RESULT": 39.8}
{"COMPOUND": "Cc1ccc(OCCOCCOc2ccc(Br)cc2/C=N\\NC(=O)c2ccncc2)cc1", "OBSERVATION_TYPE": "inhibition", "U": "%", "MEASURED_RESULT": 40.5}
{"COMPOUND": "CC1=CC(C)(C)Nc2ccc(OC(=O)C(Cc3ccccc3)N3C(=O)C4CCCCC4C3=O)cc21 (stereo unspecified)", "OBSERVATION_TYPE": "inhibition", "U": "%", "MEASURED_RESULT": 38.3}
{"COMPOUND": "Cc1ccc(C(O)P(=O)(OC(C)C)c2ccc(N(C)C)cc2)cc1 (stereo unspecified)", "OBSERVATION_TYPE": "inhibition", "U": "%", "MEASURED_RESULT": -15}
{"COMPOUND": "C=CCOc1ccc(C(=O)Nc2ccccc2C(=O)N2CCCC2)cc1", "OBSERVATION_TYPE": "inhibition", "U": "%", "MEASURED_RESULT": 15.3}
{"COMPOUND": "O=C(Nc1c(Cl)cccc1Cl)C1CCC1", "OBSERVATION_TYPE": "inhibition", "U": "%", "MEASURED_RESULT": -12.1}
{"COMPOUND": "CSc1ccc(CCNC(=O)C2CCN(c3nnc(-n4cccc4)s3)CC2)cc1", "OBSERVATION_TYPE": "inhibition", "U": "%", "MEASURED_RESULT": -2.74}
{"COMPOUND": "CC1=C/C(=N\\OS(=O)(=O)c2ccccc2)C=CC1=O", "OBSERVATION_TYPE": "inhibition", "U": "%", "MEASURED_RESULT": 116}
{"COMPOUND": "COc1ccc(C(=O)Nc2sc(C)c(C)c2CN2CCOCC2)cc1", "OBSERVATION_TYPE": "inhibition", "U": "%", "MEASURED_RESULT": 3.12}
{"COMPOUND": "O=S(=O)(NCC1CCCO1)c1ccc2ccccc2c1 (stereo unspecified)", "OBSERVATION_TYPE": "inhibition", "U": "%", "MEASURED_RESULT": -2.51}
{"COMPOUND": "O=C(CN1CCN(c2cccc(Cl)c2)CC1)Nc1ccc(S(=O)(=O)N2CCOCC2)cc1", "OBSERVATION_TYPE": "inhibition", "U": "%", "MEASURED_RESULT": 7.9}
{"COMPOUND": "CCn1nc(C(=O)NNS(=O)(=O)c2cc(/C=C/C(=O)O)cc(OC)c2OC)c2ccccc2c1=O", "OBSERVATION_TYPE": "inhibition", "U": "%", "MEASURED_RESULT": 11.8}
{"COMPOUND": "CN(C)C(=O)c1ccc(NC(=O)COC(=O)c2cc3c(s2)CCCCC3)cc1", "OBSERVATION_TYPE": "inhibition", "U": "%", "MEASURED_RESULT": -5.04}
{"COMPOUND": "CC(C)NC(=O)/C(C#N)=C\\c1ccc(N(C)C)c(Br)c1", "OBSERVATION_TYPE": "inhibition", "U": "%", "MEASURED_RESULT": -1.04}
{"COMPOUND": "Cc1noc(C)c1C(=O)OC(C)C(=O)Nc1ccc2c(c1)OCO2 (stereo unspecified)", "OBSERVATION_TYPE": "inhibition", "U": "%", "MEASURED_RESULT": 7.92}
{"COMPOUND": "O=C(NCC1CCCO1)c1cc2c(s1)CCCC2 (stereo unspecified)", "OBSERVATION_TYPE": "inhibition", "U": "%", "MEASURED_RESULT": 14}
{"COMPOUND": "CNN/C(N=Cc1ccc([N+](=O)[O-])s1)=N\\S(=O)(=O)c1cc(C)c(Cl)cc1SCc1ccccc1", "OBSERVATION_TYPE": "inhibition", "U": "%", "MEASURED_RESULT": 5.23}
{"COMPOUND": "Cn1c(N)cc(=O)n(C)c1=S", "OBSERVATION_TYPE": "inhibition", "U": "%", "MEASURED_RESULT": -4.84}
{"COMPOUND": "COc1ccccc1Cn1c(C)nnc1-c1cnn(C)c1N", "OBSERVATION_TYPE": "inhibition", "U": "%", "MEASURED_RESULT": -9.47}
{"COMPOUND": "CC(Sc1nnc(COc2ccccc2)n1-c1ccccc1)C(=O)O (stereo unspecified)", "OBSERVATION_TYPE": "inhibition", "U": "%", "MEASURED_RESULT": -12.2}
